- Target or system: Nicotinamide phosphoribosyltransferase (Homo sapiens, UniProt P43490)
- Sequence (P43490 whole entry): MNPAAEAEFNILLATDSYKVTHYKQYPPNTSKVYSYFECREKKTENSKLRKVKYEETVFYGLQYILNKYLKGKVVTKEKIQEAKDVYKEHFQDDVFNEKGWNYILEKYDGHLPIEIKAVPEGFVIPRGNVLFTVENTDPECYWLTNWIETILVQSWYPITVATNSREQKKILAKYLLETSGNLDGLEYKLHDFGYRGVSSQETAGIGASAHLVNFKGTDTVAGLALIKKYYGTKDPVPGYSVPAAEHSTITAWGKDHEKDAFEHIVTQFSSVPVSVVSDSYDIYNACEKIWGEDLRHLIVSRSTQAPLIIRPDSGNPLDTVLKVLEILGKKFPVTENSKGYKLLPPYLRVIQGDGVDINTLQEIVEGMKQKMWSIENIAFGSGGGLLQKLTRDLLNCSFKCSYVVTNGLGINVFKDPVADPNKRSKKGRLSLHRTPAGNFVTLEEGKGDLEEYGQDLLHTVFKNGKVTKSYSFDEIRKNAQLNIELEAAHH
- Protocol: NMN Fluorescence Biochemical Assay
Field: EC50. Provide a value for each of the molecules that follow.
One number for each entry, in µM.

[
  {
    "Molecule": "Cc1ccc([C@@H](C)NC(=O)c2nc(C)c(C)c(NCCc3cn[nH]c3)n2)o1 [US20240067631, Compound 101]",
    "Target or system": "Nicotinamide phosphoribosyltransferase (Homo sapiens, UniProt P43490)",
    "EC50 [µM]": 4.09
  }
]

Now turn to the next molecule.
query: Retrieve EC50 measured for Cc1nc(C(=O)N2CCN(Cc3ccccc3)C(=O)C2)nc(NCCc2cn[nH]c2)c1C [US20240067631, Compound 45] and print it.
result: 3.52
